Origin of values: patent US12447153B2

tested_system: UniProt P00533
Sequence (P00533 25-1210): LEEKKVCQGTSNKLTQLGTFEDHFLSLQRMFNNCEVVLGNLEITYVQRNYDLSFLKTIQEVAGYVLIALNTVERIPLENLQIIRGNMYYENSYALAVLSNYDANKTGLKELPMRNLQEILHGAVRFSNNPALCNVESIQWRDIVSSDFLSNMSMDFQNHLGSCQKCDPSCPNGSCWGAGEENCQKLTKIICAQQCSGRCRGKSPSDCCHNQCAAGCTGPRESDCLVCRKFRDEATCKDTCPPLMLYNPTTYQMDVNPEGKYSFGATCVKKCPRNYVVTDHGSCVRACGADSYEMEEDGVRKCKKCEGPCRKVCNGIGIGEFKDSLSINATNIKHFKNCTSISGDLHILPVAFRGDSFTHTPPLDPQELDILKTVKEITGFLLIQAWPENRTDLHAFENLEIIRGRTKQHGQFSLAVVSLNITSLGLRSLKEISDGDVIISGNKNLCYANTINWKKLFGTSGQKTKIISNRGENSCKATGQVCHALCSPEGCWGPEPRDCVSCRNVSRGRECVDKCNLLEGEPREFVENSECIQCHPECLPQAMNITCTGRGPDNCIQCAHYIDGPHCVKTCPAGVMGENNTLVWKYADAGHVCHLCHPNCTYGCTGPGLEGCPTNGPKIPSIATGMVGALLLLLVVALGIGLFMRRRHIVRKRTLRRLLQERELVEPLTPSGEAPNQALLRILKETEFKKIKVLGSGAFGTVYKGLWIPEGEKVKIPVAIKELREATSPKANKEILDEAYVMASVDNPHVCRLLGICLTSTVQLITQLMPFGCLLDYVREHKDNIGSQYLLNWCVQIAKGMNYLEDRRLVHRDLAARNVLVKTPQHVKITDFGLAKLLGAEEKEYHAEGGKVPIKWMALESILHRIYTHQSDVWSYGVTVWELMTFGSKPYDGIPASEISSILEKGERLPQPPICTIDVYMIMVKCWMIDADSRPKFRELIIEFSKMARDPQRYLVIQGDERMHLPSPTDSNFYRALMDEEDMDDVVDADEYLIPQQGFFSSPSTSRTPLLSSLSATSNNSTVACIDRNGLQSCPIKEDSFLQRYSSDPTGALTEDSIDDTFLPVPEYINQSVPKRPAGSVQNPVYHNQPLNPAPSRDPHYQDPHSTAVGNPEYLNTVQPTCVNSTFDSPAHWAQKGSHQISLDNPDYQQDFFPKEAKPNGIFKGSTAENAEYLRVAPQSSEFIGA
assay_remarks: ErbB Enzyme Assay (HTRF KinEASE-TK), Assay 3
Format: biochemical
condition_parameters: EGFR enzyme assay
Procedure: The kinases were incubated with 250 nM TK-substrate biotin (CisBio, part of cat #62TKOPEC) at 1 mM ATP along with test compounds in a buffer consisting of 25 mM HEPES, pH 7.4, 10 mM MgCl2, 0.01% Triton X-100, and 2% DMSO in a volume of 8 μL. […] After 30-minute incubation at 22° C., the reaction was quenched by adding 8 μL of quench solution containing 62.5 nM Sa-XL665 and 0.25×TK-Ab-Cryptate in HTRF detection buffer (all from CisBio, part of cat #62TKOPEC). […]
pIC50: −log10 of the molar value.
recorded_endpoint: pIC50

{"columns": ["compound", "pIC50"],
 "data": [
  ["C=CC(=O)N1[C@H](C)CN(c2ccc3ncnc(Nc4cc(Cl)c(Oc5ccn6ncnc6c5)cc4F)c3n2)C[C@@H]1C", 5.11]
]}

I. C=CC(=O)N1CCN(c2ccc3ncnc(Nc4ccc(Oc5cc(F)c6c(c5)ncn6C)c(C)c4)c3n2)C[C@@H]1C1CC1 (racemic)
II. C=CC(=O)N1C[C@@H]2CC[C@H]1CN2c1ccc2ncnc(Nc3ccc(Oc4ccn5ncnc5c4)c(C)c3F)c2n1
III. C=CC(=O)N1CCN(c2ccc3ncnc(Nc4cc(C)c(Oc5ccn6ncnc6c5)cc4F)c3n2)CC12CC2
Reorder: pIC50, max to min. Please reply with the labels ordered as requested. Many thanks.
II, III, I
